Target: Integrin beta-1 (Homo sapiens) + Integrin alpha-4 (Homo sapiens) (UniProt P13612+P05556)
Sequence (P05556 whole entry, looked up): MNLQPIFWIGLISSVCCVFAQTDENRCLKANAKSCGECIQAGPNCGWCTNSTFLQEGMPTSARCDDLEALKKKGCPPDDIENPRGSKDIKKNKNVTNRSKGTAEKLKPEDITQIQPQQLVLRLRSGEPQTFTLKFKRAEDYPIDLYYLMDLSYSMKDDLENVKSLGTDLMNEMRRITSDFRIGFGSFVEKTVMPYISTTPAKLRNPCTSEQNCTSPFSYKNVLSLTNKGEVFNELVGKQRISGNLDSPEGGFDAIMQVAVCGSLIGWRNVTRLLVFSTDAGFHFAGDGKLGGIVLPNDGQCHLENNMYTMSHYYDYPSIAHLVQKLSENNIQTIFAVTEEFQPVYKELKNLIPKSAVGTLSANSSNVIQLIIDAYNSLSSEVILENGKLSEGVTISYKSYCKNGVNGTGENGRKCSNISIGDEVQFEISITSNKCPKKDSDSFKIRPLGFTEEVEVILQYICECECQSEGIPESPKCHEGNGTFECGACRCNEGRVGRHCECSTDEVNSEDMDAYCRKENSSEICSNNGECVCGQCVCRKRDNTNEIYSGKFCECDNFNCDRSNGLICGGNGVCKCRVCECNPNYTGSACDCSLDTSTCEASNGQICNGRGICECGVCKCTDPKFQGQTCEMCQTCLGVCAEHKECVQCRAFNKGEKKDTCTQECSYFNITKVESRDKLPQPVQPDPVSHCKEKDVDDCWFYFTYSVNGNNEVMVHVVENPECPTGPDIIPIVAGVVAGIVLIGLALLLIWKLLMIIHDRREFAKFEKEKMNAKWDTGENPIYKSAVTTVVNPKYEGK
Sequence (P13612 whole entry, looked up): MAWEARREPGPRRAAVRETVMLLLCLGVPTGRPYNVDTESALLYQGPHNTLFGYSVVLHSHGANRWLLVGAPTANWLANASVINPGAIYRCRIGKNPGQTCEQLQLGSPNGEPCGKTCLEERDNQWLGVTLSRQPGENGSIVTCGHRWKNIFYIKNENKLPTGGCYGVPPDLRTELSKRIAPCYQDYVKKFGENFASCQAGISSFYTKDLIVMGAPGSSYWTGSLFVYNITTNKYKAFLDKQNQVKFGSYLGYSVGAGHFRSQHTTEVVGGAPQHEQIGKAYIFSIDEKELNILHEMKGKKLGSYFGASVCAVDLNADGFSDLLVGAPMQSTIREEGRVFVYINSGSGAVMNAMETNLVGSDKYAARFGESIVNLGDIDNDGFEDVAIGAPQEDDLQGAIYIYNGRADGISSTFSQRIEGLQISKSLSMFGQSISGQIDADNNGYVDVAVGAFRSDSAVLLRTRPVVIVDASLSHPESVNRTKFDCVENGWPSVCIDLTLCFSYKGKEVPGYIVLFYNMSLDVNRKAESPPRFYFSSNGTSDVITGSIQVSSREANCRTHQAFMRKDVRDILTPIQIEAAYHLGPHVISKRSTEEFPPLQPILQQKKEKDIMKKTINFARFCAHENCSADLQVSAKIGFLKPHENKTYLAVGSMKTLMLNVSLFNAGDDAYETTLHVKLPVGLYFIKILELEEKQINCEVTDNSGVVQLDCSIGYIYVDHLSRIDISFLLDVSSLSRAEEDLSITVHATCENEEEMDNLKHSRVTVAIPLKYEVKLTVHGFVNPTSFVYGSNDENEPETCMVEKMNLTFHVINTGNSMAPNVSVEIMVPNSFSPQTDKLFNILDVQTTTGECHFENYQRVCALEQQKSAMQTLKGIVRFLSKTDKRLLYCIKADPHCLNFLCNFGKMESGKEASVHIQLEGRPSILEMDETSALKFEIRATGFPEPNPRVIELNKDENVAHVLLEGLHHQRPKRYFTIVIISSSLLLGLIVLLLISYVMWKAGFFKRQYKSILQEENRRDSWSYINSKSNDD
Assay: inhibition of HUTS-21 binding to VLA-4, pilot screen, VLA-4 allosteric modulator project, U937 cells, HUTS-21 mAb, flow cytometry, validation set (AID 2674);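 further: antibody binding induced by the VLA-4 ligand LDV present at three times its Kd; 0% = LDV ligand with antibody and no compound and 100% = antibody without LDV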
Conditions: HUTS-21 LIBS mAb binding, at 6.7 µM, active compounds read high, binding induced by LDV ligand
Catalogue of inhibition values

>  <COMPOUND>
COc1c2occc2c(OC)c2c(=O)cc(C)oc12

>  <QUANTITY UNIT>
%

>  <inhibition>
8.15

$$$$
>  <COMPOUND>
C[C@]12CCC(=O)C=C1CC[C@@H]1[C@@H]2C(=O)C[C@@]2(C)[C@H]1CC[C@]2(O)C(=O)CO

>  <QUANTITY UNIT>
%

>  <inhibition>
14.2

$$$$
>  <COMPOUND>
COc1ccc(CN(CCN(C)C)c2ccccn2)cc1

>  <QUANTITY UNIT>
%

>  <inhibition>
2.66

$$$$
>  <COMPOUND>
CC1/C(=C\c2ccc(Cl)cc2)C(=O)C2CC1C2(C)C (stereo not given)

>  <QUANTITY UNIT>
%

>  <inhibition>
-3.16

$$$$
>  <COMPOUND>
Oc1c(Cl)cc(Cl)c(Cl)c1Cc1c(O)c(Cl)cc(Cl)c1Cl

>  <QUANTITY UNIT>
%

>  <inhibition>
7.43

$$$$
>  <COMPOUND>
C[C@]12C=CC(=O)C=C1CCC1C3CC[C@](O)(C(=O)CO)[C@@]3(C)CC3OC312 (stereo not given in full)

>  <QUANTITY UNIT>
%

>  <inhibition>
5.03

$$$$
>  <COMPOUND>
CN(C)CCOc1ccccc1Cc1ccccc1

>  <QUANTITY UNIT>
%

>  <inhibition>
23.6

$$$$
>  <COMPOUND>
Nc1nnc(-c2cccc(Cl)c2Cl)c(N)n1

>  <QUANTITY UNIT>
%

>  <inhibition>
9.63

$$$$
>  <COMPOUND>
COc1ccc(CCNC(=S)NC(=O)/C=C/c2ccc(C)cc2)cc1OC

>  <QUANTITY UNIT>
%

>  <inhibition>
3.49

$$$$
>  <COMPOUND>
CC1=CC2(O)OCCN(CCO)C2=CC1=O (stereo not given)

>  <QUANTITY UNIT>
%

>  <inhibition>
-12.4

$$$$
>  <COMPOUND>
C[N+]12CCC(CC1)C(OC(=O)C(O)(c1ccccc1)c1ccccc1)C2 (stereo not given)

>  <QUANTITY UNIT>
%

>  <inhibition>
2.56

$$$$
>  <COMPOUND>
CC(C)(C)NCC(O)c1cc(O)cc(O)c1 (stereo not given)

>  <QUANTITY UNIT>
%

>  <inhibition>
-15.6

$$$$
>  <COMPOUND>
Cc1ccccc1-c1coc2cc(O)ccc2c1=O

>  <QUANTITY UNIT>
%

>  <inhibition>
-21.7

$$$$
>  <COMPOUND>
O=C(Nc1ccccc1)c1ccccc1CCc1ccccc1

>  <QUANTITY UNIT>
%

>  <inhibition>
6.95

$$$$
>  <COMPOUND>
Cc1ccc(P(=O)(CSC(=N)N)c2ccc(C)cc2)cc1

>  <QUANTITY UNIT>
%

>  <inhibition>
4.27

$$$$
>  <COMPOUND>
O=P(O)(O)CP(=O)(O)O

>  <QUANTITY UNIT>
%

>  <inhibition>
22.7

$$$$
>  <COMPOUND>
COc1ccc(-c2coc3cc(O)cc(O)c3c2=O)cc1

>  <QUANTITY UNIT>
%

>  <inhibition>
5.49

$$$$
>  <COMPOUND>
COc1ccc(/C=C2\CCc3ccccc3C2=O)c(OC)c1OC

>  <QUANTITY UNIT>
%

>  <inhibition>
2.3

$$$$
>  <COMPOUND>
C=C(CC)C(=O)c1ccc(OCC(=O)O)c(Cl)c1Cl

>  <QUANTITY UNIT>
%

>  <inhibition>
-4.21

$$$$
>  <COMPOUND>
COC(=O)c1cc(C(=O)NCCC(C)C)cc([N+](=O)[O-])c1

>  <QUANTITY UNIT>
%

>  <inhibition>
2.3

$$$$
>  <COMPOUND>
CC(=O)N=c1sc(S(N)(=O)=O)nn1C

>  <QUANTITY UNIT>
%

>  <inhibition>
-9.57

$$$$
>  <COMPOUND>
CC1(C)c2ccccc2N2CC(=O)N(CC(N)=O)C21C (stereo not given)

>  <QUANTITY UNIT>
%

>  <inhibition>
-5.84

$$$$
>  <COMPOUND>
NC12CC3CC(CC(C3)C1)C2

>  <QUANTITY UNIT>
%

>  <inhibition>
-27.5

$$$$
>  <COMPOUND>
COc1cc(Cl)cc2c1Sc1ccccc1/C2=C/CCN(C)C

>  <QUANTITY UNIT>
%

>  <inhibition>
-7.47

$$$$
>  <COMPOUND>
Cc1cccc(N2C(=O)C3C(c4ccccc4)OC4(C(=O)c5ccccc5C4=O)C3C2=O)c1 (stereo not given)

>  <QUANTITY UNIT>
%

>  <inhibition>
-5.89

$$$$

The reported measurements were obtained from PubChem BioAssay.
